The reported numbers originate from patent US20250025444A1.

- Assay Summary: clinical
- Condition Description: human, brain (relative to plasma)

Molecule: CN1CC[C@]2(C)c3cc(OC(=O)Nc4ccccc4)ccc3N(C)C12 (single isomer, unassigned)
Kp: ~8
